Provide the recorded growth inhibition for the entries that follow.
- Assay method text: NCI Yeast Anticancer Drug Screen. Data for the cln2 rad14 strain (AID 165);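 further: 0% = growth equal to vehicle treated cultures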
- Details: S. cerevisiae cln2 rad14 strain, at 5.0 µM (retest, dose inferred, filed as 0.5), active compounds read high
The panel holds about 79,000 compounds, 15% with a hit somewhere; the sample as a whole holds those more often.
One number for each entry, in %.

Record excerpt, results attached:
Query growth inhibition for CC#CS(=O)(=O)c1ccccc1
3

Query growth inhibition for Cc1ccc([PH+](CC[PH+](c2ccccc2)c2ccccc2)c2ccc(C)cc2)cc1.Cc1ccc([PH+](CC[PH+](c2ccccc2)c2ccccc2)c2ccc(C)cc2)cc1.[Pt]
34

Query growth inhibition for Cc1cc(C)nc(/C=C/c2ccc(/C=C/c3cc(C)cc(C)n3)cc2)c1
-4

Please state, for each entry, its recorded growth inhibition.
1. O=C(O)/C(=C/c1c(O)ccc2ccccc12)c1csc(-c2nc(/C(=C\c3c(O)ccc4ccccc34)C(=O)O)cs2)n1
2. Cc1c[n+](=O)c2ccccc2n1[O-]
3. O=C1CCCc2cc3c(nc21)C(=O)CCC3
4. Cc1nc(N2N=C(c3ccc(Cl)cc3)CCC2=O)sc1[N+](=O)[O-]
5. CN(C)c1c([N+](=O)[O-])cc(N2C(=O)C=CC2=O)cc1[N+](=O)[O-]
6. O=C1SCCN1/N=C/c1ccc([N+](=O)[O-])o1
7. CC(=O)Nc1nnc(C)s1

[46, 8, -7, 12, 50, 2, -3]

Query growth inhibition for COc1ccc(OC)c(C(Cc2ccnc3ccccc23)Cc2ccnc3ccccc23)c1
1

----------
- Assay method text: NCI Yeast Anticancer Drug Screen. Data for the sgs1 mgt1 strain (AID 161);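 further: 0% = growth of cultures given vehicle only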
- Details: S. cerevisiae sgs1 mgt1 strain, at 50.0 µM (retest, dose inferred, filed as 5.0)
About 79,000 compounds went through this panel and 15% of them were active in at least one assay; those are over-represented in the sample as a whole. Calls of active or inactive are those of the source. Cut-off read from the data, not from the text of the source: active = growth inhibition above about 70%; inactive = the rest.
Field 'call' accepts active, inactive

Some entries whose results are on file:
GET /call?item= CCOC(=O)c1cnc(SCc2ccc(Cl)cc2Cl)nc1Cl returns the recorded outcome of this test.
inactive

GET /call?item= O=C(CBr)c1ccc2cc(Br)c3ccccc3c2c1 returns the recorded outcome of this test.
active

GET /call?item= Cc1cc(NS(=O)(=O)c2ccc(Nc3c4ccccc4nc4c(C(=O)NC(CO)(CO)CO)cccc34)cc2)no1 returns the recorded outcome of this test.
inactive

GET /call?item= O=C(O)c1ccc(/C=C2\COc3ccccc3C2=O)cc1 returns the recorded outcome of this test.
active

---
GET /call?item= O=C(O)CCSSCCCCCS(=O)O returns the recorded outcome of this test.
inactive

GET /call?item= N#Cc1c(-c2ccc(Cl)cc2)c(-c2ccc(Cl)cc2)nn(CCOC(=O)CCC(=O)O)c1=O returns the recorded outcome of this test.
inactive

----------
- Assay method text: NCI Yeast Anticancer Drug Screen. Data for the mlh1 rad18 strain (AID 175)
- Details: S. cerevisiae mlh1 rad18 strain growth inhibition; at 5.0 µM (retest, dose inferred, filed as 0.5)
About 79,000 compounds went through this panel and 15% of them were active in at least one assay; those are over-represented in the sample as a whole. Calls of active or inactive are those of the source. Cut-off read from the data, not from the text of the source: active = growth inhibition above about 70%; inactive = the rest.
Field 'call' accepts yes (1) for active, no (0) for inactive

Some entries whose results are on file:
GET /call?item= CNC(=S)N/N=C/c1nccc(-c2ccccc2)c1C returns the recorded outcome of this test.
no (0)

GET /call?item= COc1ccccc1C1SC(c2ccccc2)(c2ccccc2)OC1=O (stereo unspecified) returns the recorded outcome of this test.
no (0)

GET /call?item= c1ccc2c(c1)Nc1ccccc1[P+]21c2ccccc2Nc2ccccc21 returns the recorded outcome of this test.
yes (1)

GET /call?item= CC/C(=N\NS(=O)(=O)c1ccc(C)cc1)c1cccc(OC)c1 returns the recorded outcome of this test.
no (0)

GET /call?item= CCCCCCCCCCCC1=NCCN1CCNCCCC returns the recorded outcome of this test.
no (0)

Now, please, on to the next compound.
GET /call?item= Cc1c(C2CC(=O)NC2=O)c2ccccc2n1C (stereo unspecified) returns the recorded outcome of this test.
no (0)

----------
- Assay method text: NCI Yeast Anticancer Drug Screen. Data for the sgs1 mgt1 strain (AID 161);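 further: 0% = growth of cultures given vehicle only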
- Details: S. cerevisiae sgs1 mgt1 strain, at 50.0 µM, active compounds read high
About 79,000 compounds went through this panel and 15% of them were active in at least one assay; those are over-represented in the sample as a whole.
Provide the recorded growth inhibition for the entries that follow.
Give bare numbers, in %.

Record excerpt, results attached:
Query growth inhibition for O=C(O)CCSSCCCCCS(=O)O
7.95

Query growth inhibition for CCCCOc1c(OCCCC)c(=O)c1=O
-31.6

Query growth inhibition for O=[N+]([O-])/C(C(Cl)=C(Cl)Cl)=C(/Nc1ccccc1)Sc1ccccc1
66.5

Query growth inhibition for C[n+]1c(-c2cccc(OCCCCCCCCOc3cccc(-c4c5cc(N)ccc5c5ccc(N)cc5[n+]4C)c3)c2)c2cc(N)ccc2c2ccc(N)cc21
89.8

Query growth inhibition for CCN(CC)CCNc1c(C)ccc2cccnc12
29.4

Query growth inhibition for Cn1c2ccccc2c2c(C#N)c(C#N)c([N+](=O)[O-])cc21
75.2

Please state, for each entry, its recorded growth inhibition.
1. O=C1C(=O)N(c2cc(Cl)ccc2Cl)C(=O)C(=O)C1c1nc2ccccc2o1
2. CCOC(=O)NC(c1ccc(C(NC(=O)OCC)P(=O)(O)NC23CC4CC(CC(C4)C2)C3)cc1)P(=O)(O)NC12CC3CC(CC(C3)C1)C2 (stereo unspecified)
3. COc1ccc(C(=O)C(CCC(=O)/C=C/c2ccccc2)S(C)(=O)=O)cc1 (stereo unspecified)
4. O=C(NCCCCCCNC(=O)n1cc(F)c(=O)[nH]c1=O)NCCCOCCOCCOCCOCCOCCOCCOCCOCCOCCOCCOCCOCCOCCOCCOCCOCCOCCOCCOCCOCCOCCCNC(=O)C(O)C(O)C(O)C(O)CO (stereo unspecified)

1. 36.8
2. 81
3. 17.2
4. 76.8

Please state, for each entry, its recorded growth inhibition.
1. O=C(NCCCCCNC(=O)C12CC3CC(CC(C3)C1)C2)C12CC3CC(CC(C3)C1)C2
2. C/C(=N/Nc1ccc([N+](=O)[O-])cc1[N+](=O)[O-])C1=CCC(C(C)(C)C)CC1 (stereo unspecified)

1. -5.15
2. -7.05

----------
Provide the recorded growth inhibition for the entries that follow.
- Assay method text: NCI Yeast Anticancer Drug Screen. Data for the sgs1 mgt1 strain (AID 161);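 further: 0% = growth of cultures given vehicle only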
- Details: S. cerevisiae sgs1 mgt1 strain, at 50.0 µM (retest, dose inferred, filed as 5.0), active compounds read high
This is part of a sample that, as a whole, favours compounds with a hit. Of some 79,000 tested, about 15% had one in any assay.
One number for each entry, in %.

Query growth inhibition for CSC(=S)N/N=C(\C)c1nccnc1C
98

Query growth inhibition for COC(=O)Nc1nc2ccc(C(=O)c3ccccc3)cc2[nH]1
-5

Query growth inhibition for O=C1C2=Cc3ccccc3CCN2c2ccccc21
1

Query growth inhibition for N#[N+]c1ccc2c(S(=O)(=O)Oc3ccc(C(=O)c4ccccc4)c(OS(=O)(=O)c4cccc5c([O-])c([N+]#N)ccc45)c3)cccc2c1[O-]
59

Query growth inhibition for O=C1OC(c2ccccc2)CC1Cc1ccccc1 (configuration not stated)
8

Query growth inhibition for COC(=O)c1cc(=O)n(-c2ccccc2OC)c(SC)n1
87

Query growth inhibition for NCCCSc1ccc(Br)cc1
47

Query growth inhibition for COc1ccc2c(c1)C(=O)C(Br)CC2 (configuration not stated)
55

Please state, for each entry, its recorded growth inhibition.
1. S=C(N/N=C/c1ccccn1)Nc1ccccn1
2. N#CSCc1ccc(Cl)c(CSC#N)c1
3. O=c1ccccc(Br)c1O
4. O=C(C[n+]1ccc2ccccc2c1)c1ccc(-c2ccccc2)cc1

1: 99; 2: 99; 3: 97; 4: 97

----------
Provide the recorded growth inhibition for the entries that follow.
- Assay method text: NCI Yeast Anticancer Drug Screen. Data for the mec2-1 strain (AID 157)
- Details: S. cerevisiae mec2-1 strain, at 5.0 µM (retest, dose inferred, filed as 0.5), active compounds read high
Compounds without any hit were thinned out: in the full panel of roughly 79,000, 15% have a hit.
Numbers only, in %.

Record excerpt, results attached:
Query growth inhibition for CC[N+]1=C(/C=C\c2cc(C)c3cccnc3c2O)C(C)(C)c2ccccc21
-2

Query growth inhibition for CN(C)CCOc1ccc2c(c1)C(=O)/C(=C\c1ncc([N+](=O)[O-])n1C)C2
21

Query growth inhibition for CC(CN(CC(=O)O)CC(=O)O)N(CC(=O)O)CC(=O)O.[Cl][Pd][Cl] (stereo unspecified)
7

Please state, for each entry, its recorded growth inhibition.
1. COc1cc2c(cc1OC)C(Cl)C(c1ccc(F)cc1)=C2Cl (stereo unspecified)
2. COc1ccc(-n2c(=O)c3[nH]c(=S)[nH]c3n(-c3ccc(OC)cc3)c2=S)cc1
3. Cc1ccc([PH+](CC[PH+](c2ccccc2)c2ccccc2)c2ccc(C)cc2)cc1.Cc1ccc([PH+](CC[PH+](c2ccccc2)c2ccccc2)c2ccc(C)cc2)cc1.[Pt]

5
1
26

These entries and their values trace back to PubChem BioAssay (NCI).
